Field: growth inhibition. Provide a value for each of the compounds that follow.
# assay: NCI Yeast Anticancer Drug Screen. Data for the rad50 strain (AID 155);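 note: 0% = growth of vehicle-only cultures of the same strain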
# runParameters: S. cerevisiae rad50 strain growth inhibition; at 5.0 µM (retest, dose inferred, filed as 0.5); active compounds read high
Compounds without any hit were thinned out: in the full panel of roughly 79,000, 15% have a hit.
One number for each entry, in %.

Would you please look over these solved cases?
- compound: "CCC[CH2][Sn]([F])([CH2]CCC)[O][Sn]([F])([CH2]CCC)[CH2]CCC"
  growth inhibition (%): 51
- compound: "CCC[CH2][Sn]1([CH2]CCC)[O]C(=O)c2cccnc2[O]1"
  growth inhibition (%): 34
- compound: "C=CCN(CC=C)CC(C(C)=O)C(c1ccccc1)c1c(O)c2ccccc2oc1=O (configuration not stated)"
  growth inhibition (%): 32

For every item in the list below, what is its measured growth inhibition?
1. CC(=O)OCC12CCC(C)=CC1OC1C3(O)N=C(C)OC3C2(C)C12CO2 (configuration not stated)
2. O=C(O)C1C2CCC(C2)C1c1ccccc1 (configuration not stated)
3. Cc1ccc2c(c1)C1(C)c3cc(C)ccc3SP1S2 (configuration not stated)
4. C[C@@]12CCC(=O)C=C1CC[C@H]1C2=CC[C@]2(C)C1CC[C@@]2(C)O (some centres not stated)

Reply:
1: 35; 2: -2; 3: -4; 4: 27

// each listed compound needs a value for growth inhibition
1. CCOc1ccc(/C=C/[N+](=O)[O-])cc1[N+](=O)[O-]
2. ClC(C[n+]1ccccc1)c1ccccc1 (configuration not stated)
3. c1ccc2c(NCCCCCCCCNc3c4ccccc4nc4ccccc34)c3ccccc3nc2c1
4. Cc1nc(Cl)c(CBr)c(Cl)n1
5. CC#N.FC(F)(F)C#CC(F)(F)F.FC(F)(F)C#CC(F)(F)F.FC(F)(F)C#CC(F)(F)F.[W]
6. O=[n+]1c2ccccc2n([O-])c2ccccc21.[Cl][Ni][Cl]
7. COc1cc(C[C@H]2c3cc(OC)c(OC)c(O)c3CCN2C)c(Oc2cc3c(cc2OC)-c2c(OC)c(OC)c(OC)c4c2C(C3)N(C)CC4)cc1OC (some centres not stated) (tested in a mixture with another compound)

Reply:
11
8
87
38
90
96
-2

Go through the items and report each one's growth inhibition.
1. NC(=O)c1ccc(N)nc1
2. Cc1cccc(NC(=O)CBr)c1

Reply:
[5, 21]

For each entry beneath this line, provide reported growth inhibition.
1. S=C(S)N1CCOCC1
2. COc1cc(C(=O)CCN(CCCl)CCCl)cc(OC)c1OC
3. COC1=C(N2CC2)C(=O)C(OC)=C(N2CC2)C1=O
4. CCCOc1ccc(/C=C/[N+](=O)[O-])cc1N
5. CCN(Cc1ccccc1)CC(O)c1ccc(Cl)c(Cl)c1 (configuration not stated)
6. Fc1cccc(C2N(Cc3ccc(N(CCCl)CCCl)cc3Cl)CCCN2Cc2ccc(N(CCCl)CCCl)cc2Cl)c1
7. COC1CC(CC2CCC(C)C(C(C)C(=O)O)O2)OC2(OC(C)(C3CCC(C)(C4OC(C5OC(O)(CO)C(C)CC5C)CC4C)O3)CC2C)C1C (configuration not stated)
8. Nc1c(Cl)cccc1C(=O)O

Reply:
1. 62
2. -1
3. 95
4. 58
5. -3
6. -28
7. 36
8. 3

// for each compound below, give its growth inhibition
1. COc1cc(C=Nc2cc(Br)c(OC)c(Br)c2)ccc1N(CCCl)CCCl
2. CN(CCC(N)CC(=O)NC1C=CC(n2ccc(N)nc2=O)OC1C(=O)O)C(=N)N (configuration not stated)

Reply:
1: 1; 2: 48

Ask: Give recorded growth inhibition. CC1C2C=CC1C(c1c3ccc(=O)c(O)c-3oc3c(O)c(O)ccc13)C2C(=O)O (configuration not stated)
Reply: 11
